# System: 633275-114-R-J1-PDC complex spheroids, viability
# procedure summary: Anticancer human tumor 633275-114-R-J1-PDC patient-derived endometrial adenocarcinoma cell line growth inhibition [GQUAD]
# particulars: second compound 3.16 µM; first compound 1 µM; stronger effect = lower value
# Text: DNA G-quadruplex Stabilizer Agents in Combinations in Complex Spheroids A high-throughput screen of multi-cell type tumor spheroids was designed to identify active combinations of DNA G-quadruplex stabilizer agents and targeted small molecules. […] Compounds. […] If the clinical Cmax for an agent had not been determined, the highest concentration tested was 10 microM. […]
Category key, based on recorded viability, T/C: low band (below 30%), middle band (30% to below 60%), high band (60% or more)

[[record]]
compound = "Nc1ccn(C2OC(CO)C(O)C2(F)F)c(=O)n1 (stereo unspecified) + CN(C)c1ccc(Nc2c3ccc(NC(=O)CCN4CCCC4)cc3nc3cc(NC(=O)CCN4CCCC4)ccc23)cc1"
label_value = "low band"

[[record]]
compound = "Cc1cccc(N(C)C(=O)C2C(O)CCN2c2nc(C)cc(C(F)(F)F)c2C#N)c1 (stereo unspecified) + Cc1[nH]c2ccc(F)cc2c1-c1nc2c3cccnc3c3ncccc3c2[nH]1"
label_value = "high band"

[[record]]
compound = "COc1cccc2c1C(=O)c1c(O)c3c(c(O)c1C2=O)CC(O)(C(=O)CO)CC3OC1CC(N)C(O)C(C)O1 (stereo unspecified) + Cc1cnc(CNC(=O)c2c(=O)c3ccc(N4CCCN(C)CC4)nc3n3c2sc2ccccc23)cn1"
label_value = "low band"

[[record]]
compound = "C=CC(=O)N1CCN(c2nc(=O)n(-c3c(C)ccnc3C(C)C)c3nc(-c4c(O)cccc4F)c(F)cc23)C(C)C1 (stereo unspecified) + Cc1[nH]c2ccc(F)cc2c1-c1nc2c3cccnc3c3ncccc3c2[nH]1"
label_value = "high band"

[[record]]
compound = "O=C(c1cc(Cc2n[nH]c(=O)c3ccccc23)ccc1F)N1CCN(C(=O)C2CC2)CC1 + CN(C)c1ccc(Nc2c3ccc(NC(=O)CCN4CCCC4)cc3nc3cc(NC(=O)CCN4CCCC4)ccc23)cc1"
label_value = "high band"


Asked: Which class is correct for the following compound? CC1COCCN1c1cc(-c2ccnn2C)c2ccnc(-c3ccn[nH]3)c2n1 (stereo unspecified) + CN(C)c1ccc(Nc2c3ccc(NC(=O)CCN4CCCC4)cc3nc3cc(NC(=O)CCN4CCCC4)ccc23)cc1
Given back: low band

---

# Test system: 633275-114-R-J1-PDC complex spheroids, viability
# procedure summary: Anticancer human tumor 633275-114-R-J1-PDC cell line growth inhibition [GQUAD];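 also: spheroids exposed to the agents for seven days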
# particulars: curve of first compound; second compound 1 µM
# Text: DNA G-quadruplex Stabilizer Agents in Combinations in Complex Spheroids A high-throughput screen of multi-cell type tumor spheroids was designed to identify active combinations of DNA G-quadruplex stabilizer agents and targeted small molecules. […] Compounds. […] If the clinical Cmax for an agent had not been determined, the highest concentration tested was 10 microM. […]
measured parameter: IC50

[[record]]
compound = "CC[C@@]1(O)C(=O)OCc2c1cc1n(c2=O)Cc2cc3c(CN(C)C)c(O)ccc3nc2-1 + Cc1[nH]c2ccc(F)cc2c1-c1nc2c3cccnc3c3ncccc3c2[nH]1"
assay_value = "73.1 nM"

[[record]]
compound = "COc1cc(C2c3cc4c(cc3C(OC3OC5COC(C)OC5C(O)C3O)C3COC(=O)C23)OCO4)cc(OC)c1O (stereo not drawn) + CN(C)c1ccc(Nc2c3ccc(NC(=O)CCN4CCCC4)cc3nc3cc(NC(=O)CCN4CCCC4)ccc23)cc1"
assay_value = "334 nM"

[[record]]
compound = "Nc1ccn(C2OC(CO)C(O)C2(F)F)c(=O)n1 (stereo not drawn) + Cc1cnc(CNC(=O)c2c(=O)c3ccc(N4CCCN(C)CC4)nc3n3c2sc2ccccc23)cn1"
assay_value = "< 31.6 nM"

[[record]]
compound = "C=CCn1c(=O)c2cnc(Nc3ccc(N4CCN(C)CC4)cc3)nc2n1-c1cccc(C(C)(C)O)n1 + Cc1[nH]c2ccc(F)cc2c1-c1nc2c3cccnc3c3ncccc3c2[nH]1"
assay_value = "577 nM"

[[record]]
compound = "CC(=O)O[C@H]1C(=O)[C@@]2(C)[C@H]([C@H](OC(=O)c3ccccc3)[C@]3(O)C[C@H](OC(=O)[C@H](O)[C@@H](NC(=O)c4ccccc4)c4ccccc4)C(C)=C1C3(C)C)[C@]1(OC(C)=O)CO[C@@H]1C[C@@H]2O + Cc1[nH]c2ccc(F)cc2c1-c1nc2c3cccnc3c3ncccc3c2[nH]1"
assay_value = "< 31.6 nM"


Asked: Entry under review: Cc1cccc(N(C)C(=O)C2C(O)CCN2c2nc(C)cc(C(F)(F)F)c2C#N)c1 (stereo not drawn) + Cc1cnc(CNC(=O)c2c(=O)c3ccc(N4CCCN(C)CC4)nc3n3c2sc2ccccc23)cn1 . Reported IC50?
Given back: < 31.6 nM

Asked: Which IC50 reading was recorded for the compound O=C(c1cc(Cc2n[nH]c(=O)c3ccccc23)ccc1F)N1CCN(C(=O)C2CC2)CC1 + Cc1[nH]c2ccc(F)cc2c1-c1nc2c3cccnc3c3ncccc3c2[nH]1 ?
Given back: > 10000 nM

---

# Tested on: 633275-114-R-J1-PDC complex spheroids, viability
# procedure summary: Anticancer human tumor 633275-114-R-J1-PDC cell line growth inhibition [GQUAD];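 also: spheroids exposed to the agents for seven days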;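 as to viability, T/C: percent of DMSO vehicle control viability which is 100%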
# particulars: second compound 3.16 µM; first compound 1 µM; stronger effect = lower value
measured parameter: viability, T/C (%)
Field: numeric (%). Do not append units.

[[record]]
molecule = "C=CC(=O)N1CCN(c2nc(=O)n(-c3c(C)ccnc3C(C)C)c3nc(-c4c(O)cccc4F)c(F)cc23)C(C)C1 (stereo not drawn) + CN(C)c1ccc(Nc2c3ccc(NC(=O)CCN4CCCC4)cc3nc3cc(NC(=O)CCN4CCCC4)ccc23)cc1"
assay_value = 84.5

[[record]]
molecule = "CC(C)(O)C1CCC(Nc2ccc3ncc(-c4cccc(C(F)(F)F)c4)n3n2)CC1 (stereo not drawn) + CN(C)c1ccc(Nc2c3ccc(NC(=O)CCN4CCCC4)cc3nc3cc(NC(=O)CCN4CCCC4)ccc23)cc1"
assay_value = 59.5


Asked: Which viability, T/C value is on record for Nc1ccn(C2OC(CO)C(O)C2(F)F)c(=O)n1 (stereo not drawn) + Cc1cnc(CNC(=O)c2c(=O)c3ccc(N4CCCN(C)CC4)nc3n3c2sc2ccccc23)cn1 ?
Given back: 22

---

# Test system: 633275-114-R-J1-PDC complex spheroids, viability
# procedure summary: Anticancer human tumor 633275-114-R-J1-PDC cell line growth inhibition [GQUAD];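 also: spheroids exposed to the agents for seven days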;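 as to viability, T/C: percent of DMSO vehicle control viability which is 100%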
# particulars: second compound 1 µM; first compound 10 µM; stronger effect = lower value
# From the text: DNA G-quadruplex Stabilizer Agents in Combinations in Complex Spheroids A high-throughput screen of multi-cell type tumor spheroids was designed to identify active combinations of DNA G-quadruplex stabilizer agents and targeted small molecules. […] Compounds. […] If the clinical Cmax for an agent had not been determined, the highest concentration tested was 10 microM. […]
measured parameter: viability, T/C (%)
Give a bare numeral; the unit % is implied.

Observe how each entry below is paired with its result.
[[record]]
compound = "CC1COCCN1c1cc(-c2ccnn2C)c2ccnc(-c3ccn[nH]3)c2n1 (stereo unspecified) + Cc1[nH]c2ccc(F)cc2c1-c1nc2c3cccnc3c3ncccc3c2[nH]1"
measured_parameter = "viability, T/C"
assay_value = 17.7

[[record]]
compound = "CC(C)n1c(=O)n(C)c2cnc3cc(F)c(-c4ccc(OCCCN5CCCCC5)nc4)cc3c21 + CN(C)c1ccc(Nc2c3ccc(NC(=O)CCN4CCCC4)cc3nc3cc(NC(=O)CCN4CCCC4)ccc23)cc1"
measured_parameter = "viability, T/C"
assay_value = 63.5

[[record]]
compound = "Cc1cccc(N(C)C(=O)C2C(O)CCN2c2nc(C)cc(C(F)(F)F)c2C#N)c1 (stereo unspecified) + CN(C)c1ccc(Nc2c3ccc(NC(=O)CCN4CCCC4)cc3nc3cc(NC(=O)CCN4CCCC4)ccc23)cc1"
measured_parameter = "viability, T/C"
assay_value = 87.1


Asked: What value of viability, T/C on 633275-114-R-J1-PDC complex spheroids, viability does C=CC(=O)N1CCN(c2nc(=O)n(-c3c(C)ccnc3C(C)C)c3nc(-c4c(O)cccc4F)c(F)cc23)C(C)C1 (stereo unspecified) + CN(C)c1ccc(Nc2c3ccc(NC(=O)CCN4CCCC4)cc3nc3cc(NC(=O)CCN4CCCC4)ccc23)cc1 have?
Given back: 65.2

Asked: Give the reported viability, T/C for CC1COCCN1c1cc(C2(O)CC3CCC(C2)O3)c2cnn(-c3ccn[nH]3)c2n1 (stereo unspecified) + Cc1[nH]c2ccc(F)cc2c1-c1nc2c3cccnc3c3ncccc3c2[nH]1 (system: 633275-114-R-J1-PDC complex spheroids, viability).
Given back: 9.89

Asked: Record O=c1[nH]cc(F)c(=O)[nH]1 + Cc1[nH]c2ccc(F)cc2c1-c1nc2c3cccnc3c3ncccc3c2[nH]1 : what is its viability, T/C with 633275-114-R-J1-PDC complex spheroids, viability?
Given back: 73.3
